Biological target: UniProtKB P15121
Test: In vitro inhibitory activity against aldose reductase isolated from human placenta

{"smiles-data": "O=C(O)Cc1nn(Cc2nc3cc(-c4ccccc4)ccc3o2)c(=O)c2ccccc12", "IC50 / nM": 6100}
{"smiles-data": "O=C(O)Cc1nn(Cc2nc3cc(Cl)ccc3o2)c(=O)c2ccccc12", "IC50 / nM": 78}
{"smiles-data": "O=C(O)Cc1nn(CC(=O)Nc2cc(C(F)(F)F)ccc2O)c(=O)c2ccccc12", "IC50 / nM": 200}

----------
Reported pIC50 by item:
Biological target: Aldo-keto reductase family 1 member B1 (Homo sapiens, UniProt P15121)
Experiment: In vitro inhibitory activity against aldose reductase isolated from human placenta
pIC50: −log10 of the molar value.
reported-metric: pIC50

{"smiles-data": "O=C(O)Cc1nn(Cc2nc3cc4ccccc4cc3o2)c(=O)c2ccccc12", "reported-metric": "pIC50", "censoring-sign": "=", "value-observed": 5.52}
{"smiles-data": "O=C(O)Cc1nn(Cc2cc3cc([N+](=O)[O-])ccc3s2)c(=O)c2ccccc12", "reported-metric": "pIC50", "censoring-sign": "=", "value-observed": 5.66}
{"smiles-data": "O=C(O)Cc1nn(Cc2ncc(-c3ccccc3)o2)c(=O)c2ccccc12", "reported-metric": "pIC50", "censoring-sign": "=", "value-observed": 6.18}
{"smiles-data": "O=C(O)Cc1nn(CC(=O)Nc2cccc(F)c2)c(=O)c2ccccc12", "reported-metric": "pIC50", "censoring-sign": "=", "value-observed": 7.66}
{"smiles-data": "O=C(O)Cc1nn(Cc2nc(-c3ccccc3F)no2)c(=O)c2ccccc12", "reported-metric": "pIC50", "censoring-sign": ">", "value-observed": 8.00}
